- targetSystem: T1, human α-CGRP (Homo sapiens, UniProt P06881)
- T1 construct: 1-37 (WT); purchased; host or cells: synthetic peptide
- T1 sequence (P06881 83-119 limits assumed): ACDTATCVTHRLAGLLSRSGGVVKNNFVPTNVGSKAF
- assayProtocol: Biacore affinity of antibody G1 Fab and variants to human α-CGRP
- Type: binding
- details: 37° C., Fab, screening mode unless underlined
assayEndpoint: α-human koff (s⁻¹)
Could you give me the number in s⁻¹? Just the number is fine.

Suppose we examine the molecule M59: G1 variant: L1 R28N,T30D; L2 L56S; H2 E54K,A57N,S58N,H61F; HC-FW3 L99T,A100V (antibody, V domains shown) VH: EVQLVESGGGLVQPGGSLRLSCAASGFTFSNYWISWVRQAPGKGLEWVAEIRSKSDNNATFYAEAVKGRFTISRDNAKNSLYLQMNSLRAEDTAVYYCTVYFDYGLAIQNYWGQGTLVTVSS VL: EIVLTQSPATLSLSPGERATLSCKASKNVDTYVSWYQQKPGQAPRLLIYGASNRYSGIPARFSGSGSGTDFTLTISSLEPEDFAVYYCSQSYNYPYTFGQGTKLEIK ; what α-human koff value has been reported? 0.000524
